test system: HBV rcDNA in HepDE19 cells; experiment: HepDE19 assay with bDNA quantitation of HBV rcDNA; assay type: cell-based, hepatitis B virus; details: Hepatitis B virus, HepDE19, HepDE19 assay, inhibition of rcDNA formation, bDNA quantitation; read-out: DE-19bDNA EC50
Friendly reminder: EC50 below 30 nM is true, at or above is false.

Field: example entries. Status: answers known.
molecule: CN(C(=O)c1cc2c(C(F)F)cc(F)cc2[nH]1)[C@@H]1CCCc2[nH]c(=O)c3cc(F)ccc3c21 [Compound 493]
study.target: HBV rcDNA in HepDE19 cells
assigned.category: true
--
molecule: CN(C(=O)c1cc2c(C(F)F)c(F)ccc2[nH]1)[C@@H]1COCc2[nH]c(=O)c3cc(F)c(F)cc3c21 [Compound 254]
study.target: HBV rcDNA in HepDE19 cells
assigned.category: true
--
molecule: CN(C(=O)c1cc2ccc(F)cn2c1)[C@@H]1COCc2[nH]c(=O)c3cc(F)c(F)cc3c21 [Compound 224]
study.target: HBV rcDNA in HepDE19 cells
assigned.category: true

[ask] A record lists CN(C(=O)c1ccc(-c2cc(F)cc(F)c2)c(F)c1)[C@@H]1COCc2[nH]c(=O)c3cc(F)c(F)cc3c21 [Compound 287] . Is its EC50 below 30 nM?
[reply] false

[ask] Bench note: check whether CN(C(=O)c1ccc2ncsc2c1)[C@@H]1COCc2[nH]c(=O)c3cc(F)c(F)cc3c21 [Compound 428] shows EC50 below 30 nM
[reply] false

[ask] For this molecule, is EC50 lower than 30 nM? CN(C(=O)c1cc2cc(S(C)(=O)=O)ccc2[nH]1)[C@@H]1COCc2[nH]c(=O)c3cc(F)c(F)cc3c21 [Compound 346]
[reply] false

###

system: HBV rcDNA in HepDE19 cells; assay: HepDE19 assay with bDNA quantitation of HBV rcDNA; assay type: cell-based, hepatitis B virus; details: Hepatitis B virus, HepDE19, HepDE19 assay, inhibition of rcDNA formation, bDNA quantitation; read-out: DE-19bDNA EC50
pEC50: −log10 of the molar value.
The threshold is inclusive: pEC50 of exactly 6 counts as criterion met; values below receive criterion not met.

[ask] Quick check: does CN(C(=O)c1cc2oc(Cl)cc2[nH]1)[C@@H]1COCc2[nH]c(=O)c3cc(F)c(F)cc3c21 [Compound 332] have pEC50 greater than or equal to 6?
[reply] criterion met

[ask] Does pEC50 meet or surpass 6 for CN(C(=O)c1cnc(C(F)(F)F)c(Cl)c1)[C@@H]1COCc2[nH]c(=O)c3cc(F)c(F)cc3c21 [Compound 377] ?
[reply] criterion met

[ask] Kindly determine if pEC50 recorded for CN(C(=O)C1CN(c2cscc2Br)C1)[C@@H]1COCc2[nH]c(=O)c3cc(F)c(F)cc3c21 [Compound 284] is above or exactly 6.
[reply] criterion met

[ask] Check this compound for pEC50 at or above 6: CN(C(=O)c1cccc(C(F)F)c1)[C@@H]1COCc2[nH]c(=O)c3cc(F)c(F)cc3c21 [Compound 86]
[reply] criterion met

[ask] Entry CN(C(=O)c1cnc(C(F)(F)F)c(Br)c1)[C@@H]1COCc2[nH]c(=O)c3cc(F)c(F)cc3c21 [Compound 365] : is its pEC50 no less than 6?
[reply] criterion met

[ask] Please indicate if the recorded pEC50 for CN(Cc1ccc(Br)c(F)c1)[C@@H]1COCc2[nH]c(=O)c3cc(F)c(F)cc3c21 [Compound 486] meets or exceeds 6.
[reply] criterion not met

[ask] Please check the record CN(C(=O)c1c[nH]c(=O)c(Cl)c1)[C@@H]1COCc2[nH]c(=O)c3cc(F)c(F)cc3c21 [Compound 215] and state if its pEC50 is at or above 6.
[reply] criterion not met

[ask] Hi, just wondering whether CN(C(=O)c1cc2cc(C(F)F)ccn2c1)C1CNCc2[nH]c(=O)c3cc(F)c(F)cc3c21 (single isomer, unassigned) [Compound 386] shows pEC50 of 6 or higher.
[reply] criterion not met

[ask] I'd appreciate it if you could say whether CN(C(=O)c1ccc(Br)c(=O)[nH]1)[C@@H]1COCc2[nH]c(=O)c3cc(F)c(F)cc3c21 [Compound 216] has pEC50 at least equal to 6.
[reply] criterion not met
